test system: HCC1569; assay: H1.0 immunofluorescence intensity relative to DMSO (% of DMSO); higher = stronger H1.0 induction, active = 140 or more; details: concentration: 10 µM; 24 h
reportedProperty: H1.0 immunofluorescence intensity
// return just the number, without any unit appended

Look over these answered cases.
CCCCCCCCC=CCCCCCCCCC(=O)O [10(Z)-Nonadecenoic acid] ... 106
Cn1cnc([N+](=O)[O-])c1Sc1ncnc2nc[nH]c12 ... 97.6
NC(N)=NC(N)=Nc1ccccc1 [1-Phenylbiguanide] ... 84.1
CCN(Cc1ccncc1)C(=O)C(CO)c1ccccc1 (centres undefined) [Tropicamide] ... 100

Exam item: With HCC1569 as the test system, provide measured H1.0 immunofluorescence intensity for this compound: C[N+](C)(C)CCOC(=O)CCC(=O)OCC[N+](C)(C)C.[Cl-].[Cl-] [Succinylcholine chloride]
Marked response: 84.7

Exam item: With HCC1569 as the test system, provide measured H1.0 immunofluorescence intensity for this compound: CCCCCCCCCCCC=CCC=CCCCC(=O)O [5(Z), 8(Z)-Eicosadienoic acid]
Marked response: 99.3

Exam item: With HCC1569 as the test system, provide measured H1.0 immunofluorescence intensity for this compound: `C[C@H](N[C@@H](CCc1ccccc1)C(=O)O)C(=O)N1CCC[C@H]1C(=O)O.O.O`
Marked response: 109

Exam item: With HCC1569 as the test system, provide measured H1.0 immunofluorescence intensity for this compound: `O=C1NC(=O)c2c1c1c3ccccc3[nH]c1c1[nH]c3cc(Br)ccc3c21`
Marked response: 208

Exam item: With HCC1569 as the test system, provide measured H1.0 immunofluorescence intensity for this compound: COc1cc(CC(=O)O)ccc1O [4-Hydroxy-3-methoxyphenylacetic acid]
Marked response: 97

* * *

system: TDF; test: H1.0 immunofluorescence intensity relative to DMSO (% of DMSO); higher = stronger H1.0 induction, active = 120 or more; conditions: concentration: 10 µM; 24 h
The categories you may choose from are active, inactive

Exam item: Check the results log: what was the call for COc1ccc(Cl)cc1C(=O)NCCc1ccc(S(=O)(=O)NC(=O)NC2CCCCC2)cc1 [Glibenclamide] ?
Marked response: inactive

Exam item: Check the results log: what was the call for O.Oc1cc(O)c2c(c1)OC(c1ccc(O)c(O)c1)C(O)C2 (single isomer, unassigned; (+)) [(+)-Catechin Hydrate] ?
Marked response: inactive

Exam item: Check the results log: what was the call for CC(=O)OC12COC1CC(O)C1(C)C(=O)C(O)C3=C(C)C(OC(=O)C(O)C(NC(=O)OC(C)(C)C)c4ccccc4)CC(O)(C(OC(=O)c4ccccc4)C21)C3(C)C (stereo not given) ?
Marked response: active

Exam item: Check the results log: what was the call for `CCC=CCC=CCC=CCC=CCC=CCCCCCC(=O)O` ?
Marked response: inactive

Exam item: Check the results log: what was the call for CN1CCN2c3ccccc3Cc3ccccc3C2C1.Cl (stereo not given) [Mianserin.HCl] ?
Marked response: inactive

Exam item: Check the results log: what was the call for O=C(O)[C@@H]1C[C@H](C(=O)O)N1 [cis-Azetidine-2,4-dicarboxylic acid] ?
Marked response: inactive

Exam item: Check the results log: what was the call for `Cc1ccc(-c2ncc(Cl)cc2-c2ccc(S(C)(=O)=O)cc2)cn1` ?
Marked response: inactive

Exam item: Check the results log: what was the call for Cc1ccc(NC2=CC(=O)c3sc(C)nc3C2=O)cc1 [Cdk4 Inhibitor III] ?
Marked response: active

Exam item: Check the results log: what was the call for CCCCCC=CCC=CCC=CCC1OC1CCCC(=O)O (stereo not given) ?
Marked response: inactive

Exam item: Check the results log: what was the call for `COc1cc(Br)c(S(=O)(=O)Nc2ccc(Cl)c(O[C@@H]3CCN(C)C3)c2)cc1OC` ?
Marked response: inactive

Exam item: Check the results log: what was the call for `NS(=O)(=O)c1ccc(N2CCN(CC[C@@H]3OCCc4ccccc43)CC2)cc1` ?
Marked response: inactive

Exam item: Check the results log: what was the call for `CCCCCCCCCC(=O)O` ?
Marked response: inactive

Exam item: Check the results log: what was the call for O=C(NC(CO)C(O)c1ccc([N+](=O)[O-])cc1)C(Cl)Cl (stereo not given) ?
Marked response: inactive

Exam item: Check the results log: what was the call for `O=C(O)Cc1c[nH]c2ccccc12` ?
Marked response: inactive

Exam item: Check the results log: what was the call for `Cn1c(=O)c2c(ncn2C)n(C)c1=O` ?
Marked response: inactive

* * *

system: TDF; assay: H1.0 immunofluorescence intensity relative to DMSO (% of DMSO); higher = stronger H1.0 induction, active = 120 or more; conditions: concentration: 10 µM; 24 h
In this section we review reported H1.0 immunofluorescence intensity values for a set of compounds.
// return just the number, without any unit appended

Look over these answered cases.
COc1ccnc(CS(=O)c2nc3cc(OC(F)F)ccc3[n-]2)c1OC.O.[Na+] (stereo unspecified) ... 95.7
CC(C)(C)C1(O)CCN2CC3c4ccccc4CCc4cccc(c43)C2C1.Cl (single isomer, unassigned; (+)) [(+)-Butaclamol.HCl] ... 95.7

Exam item: Answer with the recorded H1.0 immunofluorescence intensity of CC(C)CC(NC(=O)C(Cc1c[nH]c2ccccc12)NC(=O)C(Cc1ccc(O)cc1)NC(=O)C(CO)NC(=O)C(Cc1c[nH]c2ccccc12)NC(=O)C(Cc1cnc[nH]1)NC(=O)C1CCC(=O)N1)C(=O)NC(CCCN=C(N)N)C(=O)N1CCCC1C(=O)NCC(N)=O (stereo unspecified) only.
Marked response: 97.7

Exam item: Answer with the recorded H1.0 immunofluorescence intensity of CCCCCCCCCCCCCCCC(=O)NCCO [Palmitoylethanolamide] only.
Marked response: 92.4

Exam item: Answer with the recorded H1.0 immunofluorescence intensity of `O=C(O)CCCc1c[nH]c2ccccc12` only.
Marked response: 98.4

Exam item: Answer with the recorded H1.0 immunofluorescence intensity of O=C([O-])CCC(NC(=O)c1ccccc1C(=O)[O-])C(=O)[O-].[Na+].[Na+].[Na+] [Phthalamoyl-L-glutamic acid trisodium] only.
Marked response: 89.2

* * *

tested on: TDF; test: H1.0 immunofluorescence intensity relative to DMSO (% of DMSO); higher = stronger H1.0 induction, active = 120 or more; settings: concentration: 10 µM; 24 h
reportedProperty: H1.0 immunofluorescence intensity
// return just the number, without any unit appended

OCC1OC(n2cnc3c(NC4CCCC4)nc(Cl)nc32)C(O)C1O (stereo unspecified) ... 89.3

Now look at this entry.
Exam item: With TDF as the test system, provide measured H1.0 immunofluorescence intensity for this compound: `O=C1Cc2c([nH]c3ccc(Br)cc23)-c2ccccc2N1`
Marked response: 91.6

* * *

test system: TDF; assay: cell number relative to DMSO (% of DMSO); higher = more cells (less growth inhibition / toxicity); conditions: concentration: 10 µM; 24 h
Kind request: treat 100 as inclusive, so cell number at 100 or higher is MET, anything lower is NOT MET.

Exam item: Could you please find out whether `CN(C)CCCOc1nn(Cc2ccccc2)c2ccccc12` has cell number that meets 100 or exceeds it?
Marked response: NOT MET

Exam item: Could you please find out whether `CC(C)(N)c1ccc(-c2nc3ccccc3nc2-c2ccccc2)cc1` has cell number that meets 100 or exceeds it?
Marked response: NOT MET

Exam item: Could you please find out whether CN1C(CC(=O)c2ccccc2)CCCC1CC(O)c1ccccc1.Cl (stereo not drawn) [alpha-Lobeline hydrochloride] has cell number that meets 100 or exceeds it?
Marked response: MET

Exam item: Could you please find out whether `Cc1cccc(C=Cc2ccccc2)n1` has cell number that meets 100 or exceeds it?
Marked response: MET

Exam item: Could you please find out whether `CCCn1c(=O)[nH]c(=O)c2[nH]cnc21` has cell number that meets 100 or exceeds it?
Marked response: MET

Exam item: Could you please find out whether CCCCCCCCCCCCCCC(O)C(O)C(CO)NC(C)=O (configuration not stated) [C2 Phytoceramide] has cell number that meets 100 or exceeds it?
Marked response: NOT MET

Exam item: Could you please find out whether COc1ccc(-c2cc3c(C)nc(N)nc3n(C3CCC(OCCO)CC3)c2=O)cn1 (configuration not stated) has cell number that meets 100 or exceeds it?
Marked response: NOT MET

Exam item: Could you please find out whether Cc1c(C(=O)O)c(O)cc2c1C(=O)c1c(O)c(C3OC(CO)C(O)C(O)C3O)c(O)c(O)c1C2=O (configuration not stated) has cell number that meets 100 or exceeds it?
Marked response: MET

Exam item: Could you please find out whether Cc1[nH]c2ccccc2c1CCNC(=O)c1ccccc1F [2-fluoro-N-[2-(2-methyl-1H-indol-3-yl)ethyl]benzamide] has cell number that meets 100 or exceeds it?
Marked response: MET

Exam item: Could you please find out whether CC(C)CC(NC(=O)C(Cc1c[nH]c2ccccc12)NC(=O)C(Cc1ccc(O)cc1)NC(=O)C(CO)NC(=O)C(Cc1c[nH]c2ccccc12)NC(=O)C(Cc1cnc[nH]1)NC(=O)C1CCC(=O)N1)C(=O)NC(CCCN=C(N)N)C(=O)N1CCCC1C(=O)NCC(N)=O (configuration not stated) has cell number that meets 100 or exceeds it?
Marked response: NOT MET

Exam item: Could you please find out whether CC1CC2C3CCC4=CC(=O)C=CC4(C)C3(F)C(O)CC2(C)C1(O)C(=O)CO (configuration not stated) [Betamethasone] has cell number that meets 100 or exceeds it?
Marked response: MET

From: the supplement of paper PMC7156485
